Target: GPR73 (prokineticin 1 receptor) (Homo sapiens, UniProt Q8TCW9)
Construct: expressed in transfected cells; host or cells: HEK 293
Sequence (Q8TCW9 whole entry, species assumed): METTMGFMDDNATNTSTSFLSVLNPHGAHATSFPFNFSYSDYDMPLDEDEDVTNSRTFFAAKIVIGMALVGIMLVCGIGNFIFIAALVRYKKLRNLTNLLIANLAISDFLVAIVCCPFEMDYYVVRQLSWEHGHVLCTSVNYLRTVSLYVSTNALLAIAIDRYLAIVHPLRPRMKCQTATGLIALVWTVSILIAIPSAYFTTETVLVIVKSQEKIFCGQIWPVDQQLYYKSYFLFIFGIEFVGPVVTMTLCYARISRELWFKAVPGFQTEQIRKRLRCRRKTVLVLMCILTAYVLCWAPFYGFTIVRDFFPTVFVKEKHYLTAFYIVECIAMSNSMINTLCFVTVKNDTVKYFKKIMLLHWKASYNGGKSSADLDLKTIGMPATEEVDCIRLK
Assay: PK1 functional assay: Ca2+ mobilization screening for PK1 antagonists on the FLIPR
Format: cell-based
Settings: HEK293, 10 μM compound; HEK 293 GPR73 cells; multiple values = multiple testing; read-out: Ca^2+ Mobilization % Inh @ 10 μM
Description: At a time of 24 h prior to running the assay, in cell culture media (DMEM containing high Glucose and L-glutamine, 10% FBS, 1% Pen/Streptomycin, 1% Sodium Pyruvate, 20 mM HEPES, Zeocin 200 mg/L), 100 μL of 1.3*10^6/ml HEK 293 GPR73 (prokineticin 1 receptor) expressing cells were plated in a 96 well poly-d-lysine coated plate (Costar), and incubated at 37 C and 5% CO2. […] Baseline is described as the amount of relative fluorescence read when buffer alone is added to cells. […]
So basically: inhibition at 10 µM at 70% or higher? That is 1.0. Lower than 70%? That is 0.0.

> print(dat)
                                 cpd.smiles                              assay.system  class.assignment
1  COc1ccc(Cn2c(OCc3ccnc(N)n3)cc(=O)n(Cc3ccc(OC)cc3)c2=O)cc1  GPR73 (prokineticin 1 receptor) (Homo sapiens, UniProt Q8TCW9)               0.0
2  COc1ccc(Cn2c(NCc3cnc(C)cc3C)nc(=O)n(Cc3ccc(OC(F)F)cc3)c2=O)cc1  GPR73 (prokineticin 1 receptor) (Homo sapiens, UniProt Q8TCW9)               1.0
3  Nc1ncccc1CNc1nc(=O)n(Cc2ccc3[nH]ccc3c2)c(=O)n1Cc1ccc(OC(F)F)cc1  GPR73 (prokineticin 1 receptor) (Homo sapiens, UniProt Q8TCW9)               0.0
4  COc1ccc(Cn2c(NCc3cnc(C)cc3C)nc(=O)n(Cc3ccc4c(c3)OCCO4)c2=O)cc1  GPR73 (prokineticin 1 receptor) (Homo sapiens, UniProt Q8TCW9)               0.0
5  COc1ccc(Cn2c(NCc3cccnc3N3CCOCC3)nc(=O)n(Cc3ccc(OC)cc3)c2=O)cc1  GPR73 (prokineticin 1 receptor) (Homo sapiens, UniProt Q8TCW9)               1.0
6  COc1ccc(Cn2c(=O)nc(NCc3cnc(C)cc3C)n(Cc3ccc4[nH]ccc4c3)c2=O)cc1  GPR73 (prokineticin 1 receptor) (Homo sapiens, UniProt Q8TCW9)               1.0
7  COc1ccc(Cn2c(NCc3cccnc3N)nc(=O)n(Cc3ccc(C#N)cc3)c2=O)cc1  GPR73 (prokineticin 1 receptor) (Homo sapiens, UniProt Q8TCW9)               0.0
8  COCCCCCn1c(NCc2c(C)cc(C)nc2N)nc(=O)n(Cc2ccc(OC)cc2)c1=O  GPR73 (prokineticin 1 receptor) (Homo sapiens, UniProt Q8TCW9)               1.0
